The measured values listed here are drawn from paper PMC9139002.

# System: mouse peritoneal macrophages (MPM)
# experimental.protocol: Cytotoxicity on mouse peritoneal macrophages (MTT reduction)
# Format: cell-based
# test.context: Peritoneal macrophage; mouse peritoneal macrophages, MTT reduction
Exercise: for every item that follows, state its recorded pIC50.
Note on pIC50: it is the negative log10 of concentration, concentration in mol/L.

State the recorded pIC50 for this entry: CCOC(=O)NC1=CC(=O)c2ccccc2C1=O [Compound 17, Ethyl-(1,4-naphthoquinone-2-yl)carbamate] 5.38

Next molecule up: O=C(NC1=C(Cl)C(=O)c2ccccc2C1=O)OCc1ccccc1 [Compound 3] 5.01

Next molecule up: COC(=O)NC1=CC(=O)c2ccccc2C1=O [Compound 16] 5.42

Next molecule up: CC(C)(C)NC(=O)NC1=C(Cl)C(=O)c2ccccc2C1=O [Compound 14] 5.89

Next molecule up: CC(C)(C)NC1=C(Cl)C(=O)c2ccccc2C1=O [Compound 8] 4.77

Next molecule up: COc1ccc(COC(=O)NC2=C(Cl)C(=O)c3ccccc3C2=O)cc1 [Compound 4] 5.13

Next molecule up: CCOC(=O)NC1=C(Cl)C(=O)c2ccccc2C1=O [Compound 1] 5.51

Next molecule up: COc1cc(COC(=O)NC2=C(Cl)C(=O)c3ccccc3C2=O)cc(OC)c1OC [Compound 5] 5.09

Next molecule up: CC(C)OC(=O)NC1=C(Cl)C(=O)c2ccccc2C1=O [Compound 2] 5.35

Next molecule up: COC(=O)NC1=C(Cl)C(=O)c2ccccc2C1=O [MBC-132] 5.59

====

assay.metric: melting point

State the recorded melting point for this entry: CCOC(=O)NC1=CC(=O)c2ccccc2C1=O [Compound 17, Ethyl-(1,4-naphthoquinone-2-yl)carbamate] 162 to 163 °C

Next compound up: COC(=O)NC1=CC(=O)c2ccccc2C1=O [Compound 16] 201 to 202 °C

Next compound up: O=C1C(Cl)=C(NC2CCCCC2)C(=O)c2ccccc21 [Compound 9] 122 to 123 °C

Next compound up: CCOC(=O)NC1=C(Cl)C(=O)c2ccccc2C1=O [Compound 1] 147 to 149 °C

Next compound up: COc1ccc(COC(=O)NC2=C(Cl)C(=O)c3ccccc3C2=O)cc1 [Compound 4] 137 to 147 °C

Next compound up: COc1cc(CNC2=C(Cl)C(=O)c3ccccc3C2=O)cc(OC)c1OC [Compound 10] 161 to 163 °C

Next compound up: CC(C)(C)NC(=O)NC1=C(Cl)C(=O)c2ccccc2C1=O [Compound 14] 195 to 196 °C

====

# assayed.system: LdGSK-3s (Leishmania donovani)
# Sequence (A6N857 entry or part of it): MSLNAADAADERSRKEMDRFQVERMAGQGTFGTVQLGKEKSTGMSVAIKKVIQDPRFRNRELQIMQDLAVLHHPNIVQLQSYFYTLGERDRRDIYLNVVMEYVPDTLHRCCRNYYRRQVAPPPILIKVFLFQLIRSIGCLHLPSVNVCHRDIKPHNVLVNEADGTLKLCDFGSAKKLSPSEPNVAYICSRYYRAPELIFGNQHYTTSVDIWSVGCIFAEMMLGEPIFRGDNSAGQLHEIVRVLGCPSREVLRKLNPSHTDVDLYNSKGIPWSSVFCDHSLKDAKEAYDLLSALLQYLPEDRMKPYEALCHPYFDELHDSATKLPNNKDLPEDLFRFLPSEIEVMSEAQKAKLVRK
# experimental.protocol: Inhibition of recombinant LdGSK-3s with Kinase Glo
# Assay type: biochemical
# test.context: recombinant LdGSK-3s, Kinase Glo
assay.metric: IC50

State the recorded IC50 for this entry: COc1cc(COC(=O)NC2=C(Cl)C(=O)c3ccccc3C2=O)cc(OC)c1OC 4.5 µM

Next compound up: O=C(NC1=C(Cl)C(=O)c2ccccc2C1=O)OCc1ccccc1 2.8 µM

Next compound up: O=C1C(Cl)=C(NCc2ccc(Cl)cc2)C(=O)c2ccccc21 > 10 µM

Next compound up: O=C1C(Cl)=C(Nc2ccc(Cl)cc2)C(=O)c2ccccc21 > 10 µM

Next compound up: COc1ccc(COC(=O)NC2=C(Cl)C(=O)c3ccccc3C2=O)cc1 4.1 µM

Next compound up: CC(C)(C)NC1=C(Cl)C(=O)c2ccccc2C1=O > 10 µM

Next compound up: CC(C)OC(=O)NC1=C(Cl)C(=O)c2ccccc2C1=O 2.5 µM

Next compound up: COc1cc(CNC2=C(Cl)C(=O)c3ccccc3C2=O)cc(OC)c1OC > 10 µM

Next compound up: CCOC(=O)NC1=CC(=O)c2ccccc2C1=O [Compound 17, Ethyl-(1,4-naphthoquinone-2-yl)carbamate] > 10 µM

Next compound up: CCOC(=O)NC1=C(Cl)C(=O)c2ccccc2C1=O 3.7 µM

Next compound up: CC(C)(C)NC(=O)NC1=C(Cl)C(=O)c2ccccc2C1=O > 10 µM

Next compound up: O=C1C=C(O)C(=O)c2c(O)c(Cl)c(Cl)c(O)c21 ~10 µM

Next compound up: O=C1C(Cl)=C(NCc2ccccc2)C(=O)c2ccccc21 > 10 µM

Next compound up: O=C1Nc2ccc(S(=O)(=O)O)cc2C1=C1Nc2ccccc2C1=NO [Indirubin-3′-monoxime-5-sulphonic acid, reference compound] 2.4 µM

Next compound up: O=C1C(Cl)=C(NC2CCCCC2)C(=O)c2ccccc21 > 10 µM

Next compound up: COC(=O)NC1=C(Cl)C(=O)c2ccccc2C1=O 2.5 µM

Next compound up: COC(=O)NC1=CC(=O)c2ccccc2C1=O > 10 µM

Next compound up: CCCNC1=C(Cl)C(=O)c2ccccc2C1=O > 10 µM

Next compound up: CCCCCNC1=C(Cl)C(=O)c2ccccc2C1=O > 10 µM
